Test system: ATP;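 also: ATP exposure 15 min at 22 °C before imaging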
assayInfo: switch fluorescence ratio, 500 uM ATP over buffer (Cy3 cluster intensity, sum of 5 cycles each) (fold (ratio)); higher = stronger signal-on switching upon ATP binding; sequences stand for … in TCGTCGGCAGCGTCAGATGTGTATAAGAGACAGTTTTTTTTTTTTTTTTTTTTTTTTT…TC
experimentalConditions: aptamer strand: ATP DNA aptamer (quencher-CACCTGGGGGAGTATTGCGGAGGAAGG + anchor), 100 nM annealed; ATP concentration: 500 uM
measureName: switch fluorescence ratio

>>> measuredvalue("GACCCGCCAA")
4.89
>>> measuredvalue("CCGGAGAGGT")
2.28
>>> measuredvalue("GCAATAGACT")
1.51
>>> measuredvalue("AGAGGGGTCA")
1.01
>>> measuredvalue("TACTTCAAGG")
1.02
>>> measuredvalue("CGGGTATATT")
1.01
>>> measuredvalue("GCTTGGCAAC")
1.02
>>> measuredvalue("AAGGTAGAGC")
1.03
>>> measuredvalue("ATGGTAAGGT")
1
>>> measuredvalue("AGATTTACTT")
0.985
>>> measuredvalue("CGGGGTGGGT")
0.978
>>> measuredvalue("TTGTAAGGAT")
1.02
>>> measuredvalue("CTTGGTCCCG")
1.01
>>> measuredvalue("AGGAAAGATT")
1.01
>>> measuredvalue("GAATCAGTGT")
1
>>> measuredvalue("CTGTACGGAT")
1.95
>>> measuredvalue("TCTTTCCTGC")
1.02
>>> measuredvalue("GGGCAGCGCA")
0.991
>>> measuredvalue("TTTTCTATAT")
1.01
>>> measuredvalue("CCGGGAAGGC")
2.04
>>> measuredvalue("TCGCTTCTCT")
1.76
>>> measuredvalue("CCCTATATAG")
1.01
>>> measuredvalue("GCTTAGGGGG")
1.03
>>> measuredvalue("TAAAAGGAAA")
0.977
>>> measuredvalue("GGGCCCATA")
0.982
>>> measuredvalue("GTGTTAATTA")
0.989
>>> measuredvalue("TAGTTTTTAA")
1.01
>>> measuredvalue("GGGGCAACGT")
0.983
>>> measuredvalue("GTTTCAGGGA")
1.01
>>> measuredvalue("ATGTTGTCGA")
1.01
>>> measuredvalue("ATACGTTCGG")
1.01
>>> measuredvalue("ATGGGTGAAG")
0.985
>>> measuredvalue("GCTCTGTTTT")
1
>>> measuredvalue("AAATGTGGAG")
0.984
>>> measuredvalue("AATGTGGGAA")
1.01

###

Tested on: ATP;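 also: ATP exposure 15 min at 22 °C before imaging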
assayInfo: switch fluorescence ratio, 500 uM ATP over buffer (Cy3 cluster intensity, sum of 5 cycles each) (fold (ratio)); higher = stronger signal-on switching upon ATP binding; sequences stand for … in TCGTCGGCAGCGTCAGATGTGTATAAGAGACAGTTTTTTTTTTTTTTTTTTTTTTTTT…TC
experimentalConditions: aptamer strand: ATP DNA aptamer (quencher-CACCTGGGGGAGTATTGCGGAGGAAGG + anchor), 100 nM annealed; ATP concentration: 500 uM
// values below are reported switch fluorescence ratio
measureName: switch fluorescence ratio

>>> measuredvalue("TCCGATTGAA")
1.08
>>> measuredvalue("AAGGTACTAC")
1.03
>>> measuredvalue("GTTAACTGAG")
1.03
>>> measuredvalue("GGTACTATAG")
1.03
>>> measuredvalue("CCTTGGATTG")
0.985
>>> measuredvalue("TTCCATGCGG")
1.02
>>> measuredvalue("CATCGAATGC")
1.23
>>> measuredvalue("TGCTTGTGGG")
1.03

###

Test system: ATP;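 also: ATP exposure 15 min at 22 °C before imaging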
assayInfo: switch fluorescence ratio, 500 uM ATP over buffer (Cy3 cluster intensity, sum of 5 cycles each) (fold (ratio)); higher = stronger signal-on switching upon ATP binding; sequences stand for … in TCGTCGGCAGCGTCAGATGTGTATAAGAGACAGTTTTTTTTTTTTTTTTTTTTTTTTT…TC
experimentalConditions: aptamer strand: ATP DNA aptamer (quencher-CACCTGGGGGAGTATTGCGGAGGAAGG + anchor), 100 nM annealed; ATP concentration: 500 uM
// values below are reported switch fluorescence ratio
measureName: switch fluorescence ratio

>>> measuredvalue("TCATGTTTTT")
1.05
>>> measuredvalue("GAGCGAGAAG")
1.01
>>> measuredvalue("TCTTATAAGC")
0.984
>>> measuredvalue("CAATACTCAA")
2.14
>>> measuredvalue("CGAGCATTGT")
1.16
>>> measuredvalue("TTGGGAGCTT")
1.01
>>> measuredvalue("ATTTTTAACT")
0.996
>>> measuredvalue("GAGATTTTTT")
1.02
>>> measuredvalue("GACTTGTGTA")
0.994

###

// values below are reported switch fluorescence ratio
Tested on: ATP;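 also: ATP exposure 15 min at 22 °C before imaging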
assayInfo: switch fluorescence ratio, 500 uM ATP over buffer (Cy3 cluster intensity, sum of 5 cycles each) (fold (ratio)); higher = stronger signal-on switching upon ATP binding; sequences stand for … in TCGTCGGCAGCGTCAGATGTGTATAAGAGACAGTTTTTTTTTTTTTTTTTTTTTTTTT…TC
experimentalConditions: aptamer strand: ATP DNA aptamer (quencher-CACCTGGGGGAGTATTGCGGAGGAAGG + anchor), 100 nM annealed; ATP concentration: 500 uM
measureName: switch fluorescence ratio

>>> measuredvalue("GCAAGGGGTG")
1.1
>>> measuredvalue("CCGGTGCGGC")
1.48
>>> measuredvalue("ATAGTACTCG")
1.06
>>> measuredvalue("GAAACGAATT")
1.02
>>> measuredvalue("GTCGGCGTAG")
1.03
>>> measuredvalue("CGATAATGAA")
1
>>> measuredvalue("CTATTCTAGG")
1.02
>>> measuredvalue("ATTCGATTTC")
1
>>> measuredvalue("ATTTCGGGGA")
0.997
>>> measuredvalue("TTTGCAAATT")
1.03
>>> measuredvalue("GTTGGGTTAT")
0.982
>>> measuredvalue("CGTGTATTTC")
1.02
>>> measuredvalue("GTTTTACACG")
0.954
>>> measuredvalue("GGTTTTCTCA")
1

###

System: ATP;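 also: ATP exposure 15 min at 22 °C before imaging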
assayInfo: switch fluorescence ratio, 500 uM ATP over buffer (Cy3 cluster intensity, sum of 5 cycles each) (fold (ratio)); higher = stronger signal-on switching upon ATP binding; sequences stand for … in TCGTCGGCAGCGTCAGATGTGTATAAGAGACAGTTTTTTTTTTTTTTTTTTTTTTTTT…TC
experimentalConditions: aptamer strand: ATP DNA aptamer (quencher-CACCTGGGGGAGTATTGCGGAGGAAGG + anchor), 100 nM annealed; ATP concentration: 500 uM
measureName: switch fluorescence ratio

>>> measuredvalue("AGATGGGTAC")
1.03
>>> measuredvalue("CGTTATACAG")
1.01
>>> measuredvalue("AAGGGCGTAT")
1.01
>>> measuredvalue("GGGTCCATTC")
1.01
>>> measuredvalue("AATACCATTT")
1.01
>>> measuredvalue("TACTTAGTGG")
1.02
>>> measuredvalue("TCGTGGGCGA")
0.993
>>> measuredvalue("AGGGTAGCTT")
0.999
>>> measuredvalue("GAGTTCCGGG")
1.01
>>> measuredvalue("AATTTTTGCT")
0.966
>>> measuredvalue("TTTCGTTCGC")
1.3
>>> measuredvalue("CTGCGTCTAT")
1.08
>>> measuredvalue("TATGAGCAGC")
1.01
>>> measuredvalue("GGTTGGGGTG")
1.01
>>> measuredvalue("GGGCTTGTCC")
0.98
>>> measuredvalue("AGTGGGGATA")
0.986
>>> measuredvalue("GGGAGGATTT")
0.987
>>> measuredvalue("ATGCGGTATG")
1
>>> measuredvalue("GGGATTTGTA")
1.02
>>> measuredvalue("GACTGCGGAA")
2.04
>>> measuredvalue("TTAAAAATTG")
0.957
>>> measuredvalue("AGGACGGAAT")
1.09
>>> measuredvalue("GTTTATCGGG")
0.964
>>> measuredvalue("TTCGGGAGAA")
1.01
>>> measuredvalue("TTGCGGTGCG")
1.01
>>> measuredvalue("GGTTTTTAAT")
0.985
>>> measuredvalue("TTCGGGAGGG")
0.973
>>> measuredvalue("TAGGCTCGGG")
0.99
>>> measuredvalue("GAGATGTGCG")
0.932
>>> measuredvalue("CGAGGGGGGA")
0.996
>>> measuredvalue("AGGGTAGGGT")
1.01
>>> measuredvalue("GCTCGCCGAT")
1.01
>>> measuredvalue("AGGGTGTCCG")
1.09
>>> measuredvalue("TTGAAGTGGG")
1.03
>>> measuredvalue("AGGTTAATAG")
0.996
>>> measuredvalue("TTCGAGTGCC")
0.991
>>> measuredvalue("GACTTGGGTG")
1.02
>>> measuredvalue("TTAAGTTATA")
1.02
>>> measuredvalue("ATGGGAGCTT")
1.01
>>> measuredvalue("TGGTGCCCCA")
1.03
>>> measuredvalue("TATCGTTGTA")
0.939
>>> measuredvalue("AATATCAGGA")
1.03
>>> measuredvalue("AAATTCGACG")
1.05
>>> measuredvalue("CAATCATGG")
1.01
>>> measuredvalue("TGGTCTGCCC")
0.975
>>> measuredvalue("ATGAGTCATC")
0.981
>>> measuredvalue("GTTGGGCACT")
0.992
>>> measuredvalue("TGATTCTTTT")
0.974
